# Tested on: 996289-038-R-J1-PDC spheroid viability
# experiment-description: Anticancer human tumor 996289-038-R-J1-PDC patient-derived colon adenocarcinoma cell line growth inhibition [PI3K]
# condition-label: second compound 0.1 µM; first compound 0.1 µM; stronger effect = lower value; spheroids with HUVEC and MSC
measure: viability, T/C

| compound | assayed-target | viability, T/C |
| --- | --- | --- |
| CCN1CCN(Cc2ccc(Nc3ncc(F)c(-c4cc(F)c5nc(C)n(C(C)C)c5c4)n3)nc2)CC1 + CC(Nc1ccc2c(c1)OCCn1cc(N3C(=O)OCC3C(F)F)nc1-2)C(N)=O | 996289-038-R-J1-PDC spheroid viability | 66.1% |
| C[C@@H](NC(=O)c1ncnc(N)c1Cl)c1ncc(C(=O)Nc2cc(C(F)(F)F)c(Cl)cn2)s1 + CC(Nc1ncnc2nc[nH]c12)c1cc2cccc(Cl)c2c(=O)n1-c1ccccc1 | 996289-038-R-J1-PDC spheroid viability | 85.2% |

Attention now turns to another entry.
Qu. Retrieve viability, T/C measured for CCCS(=O)(=O)Nc1ccc(F)c(C(=O)c2c[nH]c3ncc(-c4ccc(Cl)cc4)cc23)c1F + CC(Nc1ncnc2nc[nH]c12)c1cc2cccc(Cl)c2c(=O)n1-c1ccccc1 and print it.
Ans. 96.8%

###

Documented viability, T/C across a set of molecules
# Test system: 996289-038-R-J1-PDC spheroid viability
# experiment-description: Anticancer human tumor 996289-038-R-J1-PDC cell line growth inhibition [PI3K];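 further: luminescence used as a proxy for viable cell amount; spheroids exposed to compounds for seven days before viability read; percent viability relative to DMSO vehicle control as 100%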
# condition-label: second compound 10 µM; first compound 0.316 µM; stronger effect = lower value; spheroids with HUVEC and MSC
Write the number in % without appending the unit.

| molecule | reported-result |
| --- | --- |
| CCN1CCN(Cc2ccc(Nc3ncc(F)c(-c4cc(F)c5nc(C)n(C(C)C)c5c4)n3)nc2)CC1 + CC(Nc1ncnc2nc[nH]c12)c1cc2cccc(Cl)c2c(=O)n1-c1ccccc1 | 71 |
| CC1(C)CCC(CN2CCN(c3ccc(C(=O)NS(=O)(=O)c4ccc(NCC5CCOCC5)c([N+](=O)[O-])c4)c(Oc4cnc5[nH]ccc5c4)c3)CC2)=C(c2ccc(Cl)cc2)C1 + CC(Nc1ncnc2nc[nH]c12)c1cc2cccc(Cl)c2c(=O)n1-c1ccccc1 | 85.7 |
| C=CC(=O)N1CCN(c2nc(=O)n(-c3c(C)ccnc3C(C)C)c3nc(-c4c(O)cccc4F)c(F)cc23)C(C)C1 (stereo not given) + Cc1nc(NC(=O)N2CCCC2C(N)=O)sc1-c1ccnc(C(C)(C)C(F)(F)F)c1 | 43.2 |

Qu. Report value: viability, T/C, system: 996289-038-R-J1-PDC spheroid viability, molecule: C#Cc1c(F)ccc2cc(O)cc(-c3ncc4c(N5CC6CCC(C5)N6)nc(OCC56CCCN5CC(F)C6)nc4c3F)c12 (stereo not given) + CC(Nc1ncnc2nc[nH]c12)c1cc2cccc(Cl)c2c(=O)n1-c1ccccc1
Ans. 47.8

Qu. Specify the recorded viability, T/C for CNC(=O)c1ccc(N2C(=S)N(c3ccc(C#N)c(C(F)(F)F)c3)C(=O)C2(C)C)cc1F + CC(Nc1ncnc2nc[nH]c12)c1cc2cccc(Cl)c2c(=O)n1-c1ccccc1 , system: 996289-038-R-J1-PDC spheroid viability.
Ans. 83.1

###

viability, T/C values by entry
# Test system: 996289-038-R-J1-PDC spheroid viability
# experiment-description: Anticancer human tumor 996289-038-R-J1-PDC cell line growth inhibition [PI3K];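 further: luminescence used as a proxy for viable cell amount; spheroids exposed to compounds for seven days before viability read; percent viability relative to DMSO vehicle control as 100%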
# condition-label: second compound 0.1 µM; first compound 0.1 µM; stronger effect = lower value; spheroids with HUVEC and MSC
# Source text: Combinatorial screen of targeted agents with the PI3K inhibitors inavolisib, alpelisib, duvelisib, and copanlisib in multi-cell type tumor spheroids A high-throughput screen of multi-cell type tumor spheroids was designed to identify active combinations of targeted small molecules and PI3K pathway inhibitors. […] Compounds. […] If the clinical Cmax for an agent had not been determined, the highest concentration tested was 10 microM. […]
Your answer should be a plain number; it is taken to be in %.

Worked cases, answers included:
| molecule | viability, T/C [%] |
| --- | --- |
| CC(C)NCC(C(=O)N1CCN(c2ncnc3c2C(C)CC3O)CC1)c1ccc(Cl)cc1 (stereo not given) + CC(Nc1ccc2c(c1)OCCn1cc(N3C(=O)OCC3C(F)F)nc1-2)C(N)=O | 71.1 |
| C#Cc1c(F)ccc2cc(O)cc(-c3ncc4c(N5CC6CCC(C5)N6)nc(OCC56CCCN5CC(F)C6)nc4c3F)c12 (stereo not given) + COc1c(OCCCN2CCOCC2)ccc2c3n(c(=NC(=O)c4cnc(N)nc4)nc12)CCN3 | 46 |
| Cn1ncnc1[C@H]1c2n[nH]c(=O)c3cc(F)cc(c23)N[C@@H]1c1ccc(F)cc1 + CC(Nc1ncnc2nc[nH]c12)c1cc2cccc(Cl)c2c(=O)n1-c1ccccc1 | 96.4 |
| CC(Cn1ccc(-c2ccc(C#N)c(Cl)c2)n1)NC(=O)c1cc(C(C)O)[nH]n1 (stereo not given) + CC(Nc1ccc2c(c1)OCCn1cc(N3C(=O)OCC3C(F)F)nc1-2)C(N)=O | 79.4 |

Shifting focus to the molecule that follows.
Qu. Provide viability, T/C value for the following molecule: CCCS(=O)(=O)Nc1ccc(F)c(C(=O)c2c[nH]c3ncc(-c4ccc(Cl)cc4)cc23)c1F + Cc1nc(NC(=O)N2CCCC2C(N)=O)sc1-c1ccnc(C(C)(C)C(F)(F)F)c1
Ans. 87.7

###

# Tested on: 996289-038-R-J1-PDC spheroid viability
# experiment-description: Anticancer human tumor 996289-038-R-J1-PDC cell line growth inhibition [PI3K];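 further: luminescence used as a proxy for viable cell amount; spheroids exposed to compounds for seven days before viability read; percent viability relative to DMSO vehicle control as 100%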
# condition-label: second compound 3.16 µM; first compound 0.316 µM; stronger effect = lower value; spheroids with HUVEC and MSC
# From the text: Combinatorial screen of targeted agents with the PI3K inhibitors inavolisib, alpelisib, duvelisib, and copanlisib in multi-cell type tumor spheroids A high-throughput screen of multi-cell type tumor spheroids was designed to identify active combinations of targeted small molecules and PI3K pathway inhibitors. […] Compounds. […] If the clinical Cmax for an agent had not been determined, the highest concentration tested was 10 microM. […]
Quick list: viability, T/C per entry.
Give the value in % but do not write % after it.

| compound | result-unit | reported-result |
| --- | --- | --- |
| CC(C)NCC(C(=O)N1CCN(c2ncnc3c2C(C)CC3O)CC1)c1ccc(Cl)cc1 (stereo not given) + Cc1nc(NC(=O)N2CCCC2C(N)=O)sc1-c1ccnc(C(C)(C)C(F)(F)F)c1 | % | 60.7 |

Qu. Give reported viability, T/C value for CC1(C)CCC(Nc2ncc(C(F)(F)F)c(-c3c[nH]c4c(P(C)(C)=O)c(C#N)ccc34)n2)CN1 (stereo not given) + CC(Nc1ncnc2nc[nH]c12)c1cc2cccc(Cl)c2c(=O)n1-c1ccccc1
Ans. 74.2

Qu. Complete the entry with viability, T/C for Cn1nccc1Nc1nccc(-c2ccn(C(CO)c3ccc(Cl)c(F)c3)c(=O)c2)n1 (stereo not given) + Cc1nc(NC(=O)N2CCCC2C(N)=O)sc1-c1ccnc(C(C)(C)C(F)(F)F)c1
Ans. 63

Qu. Provide only the value of recorded viability, T/C for CCCS(=O)(=O)Nc1ccc(F)c(C(=O)c2c[nH]c3ncc(-c4ccc(Cl)cc4)cc23)c1F + CC(Nc1ncnc2nc[nH]c12)c1cc2cccc(Cl)c2c(=O)n1-c1ccccc1
Ans. 93.2

Qu. Tell me measured viability, T/C for C#Cc1c(F)ccc2cc(O)cc(-c3ncc4c(N5CC6CCC(C5)N6)nc(OCC56CCCN5CC(F)C6)nc4c3F)c12 (stereo not given) + Cc1nc(NC(=O)N2CCCC2C(N)=O)sc1-c1ccnc(C(C)(C)C(F)(F)F)c1 please.
Ans. 30.5

###

# Tested on: 996289-038-R-J1-PDC spheroid viability
# experiment-description: Anticancer human tumor 996289-038-R-J1-PDC cell line growth inhibition [PI3K];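 further: luminescence used as a proxy for viable cell amount; spheroids exposed to compounds for seven days before viability read; percent viability relative to DMSO vehicle control as 100%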
# condition-label: second compound 0.00316 µM; first compound 3.16 µM; stronger effect = lower value; spheroids with HUVEC and MSC
Define the label as Satisfied when viability, T/C is strictly less than 90% and as Not satisfied in all remaining cases.

| molecule | class-label |
| --- | --- |
| Cn1nccc1Nc1nccc(-c2ccn(C(CO)c3ccc(Cl)c(F)c3)c(=O)c2)n1 (centres undefined) + CC(Nc1ccc2c(c1)OCCn1cc(N3C(=O)OCC3C(F)F)nc1-2)C(N)=O | Not satisfied |
| CC1(C)CCC(CN2CCN(c3ccc(C(=O)NS(=O)(=O)c4ccc(NCC5CCOCC5)c([N+](=O)[O-])c4)c(Oc4cnc5[nH]ccc5c4)c3)CC2)=C(c2ccc(Cl)cc2)C1 + CC(Nc1ccc2c(c1)OCCn1cc(N3C(=O)OCC3C(F)F)nc1-2)C(N)=O | Not satisfied |
| C#Cc1c(F)ccc2cc(O)cc(-c3ncc4c(N5CC6CCC(C5)N6)nc(OCC56CCCN5CC(F)C6)nc4c3F)c12 (centres undefined) + COc1c(OCCCN2CCOCC2)ccc2c3n(c(=NC(=O)c4cnc(N)nc4)nc12)CCN3 | Satisfied |
| CC1(C)CCC(Nc2ncc(C(F)(F)F)c(-c3c[nH]c4c(P(C)(C)=O)c(C#N)ccc34)n2)CN1 (centres undefined) + COc1c(OCCCN2CCOCC2)ccc2c3n(c(=NC(=O)c4cnc(N)nc4)nc12)CCN3 | Satisfied |
| C=CC(=O)N1CCN(c2nc(=O)n(-c3c(C)ccnc3C(C)C)c3nc(-c4c(O)cccc4F)c(F)cc23)C(C)C1 (centres undefined) + CC(Nc1ccc2c(c1)OCCn1cc(N3C(=O)OCC3C(F)F)nc1-2)C(N)=O | Not satisfied |
| Cn1ncc(Cl)c1-c1cc(C(=O)NC(CN)Cc2cccc(F)c2)sc1Cl (centres undefined) + CC(Nc1ccc2c(c1)OCCn1cc(N3C(=O)OCC3C(F)F)nc1-2)C(N)=O | Satisfied |

Then this molecule:
Qu. Here's an entry: C#Cc1c(F)ccc2cc(O)cc(-c3ncc4c(N5CC6CCC(C5)N6)nc(OCC56CCCN5CC(F)C6)nc4c3F)c12 (centres undefined) + CC(Nc1ccc2c(c1)OCCn1cc(N3C(=O)OCC3C(F)F)nc1-2)C(N)=O . Is its viability, T/C below 90%?
Ans. Satisfied
